Overview of reported self-cleavage across a group of variants:
B1: LINE1-mini (parent)
chain: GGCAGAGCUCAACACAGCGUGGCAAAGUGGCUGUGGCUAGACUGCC

Variants of: B1
assayOverview: self-cleavage, relative activity (ratio to wild type); higher = more cleavage; in vitro, sequencing; the parent is a self-cleaving ribozyme
Please respond with just the number, no unit label.

Bench note: what self-cleavage did C23G C31A show?
0.09
